Target: human TLR7 (Homo sapiens (Human), UniProt Q9NYK1)
Sequence (Q9NYK1 27-1049): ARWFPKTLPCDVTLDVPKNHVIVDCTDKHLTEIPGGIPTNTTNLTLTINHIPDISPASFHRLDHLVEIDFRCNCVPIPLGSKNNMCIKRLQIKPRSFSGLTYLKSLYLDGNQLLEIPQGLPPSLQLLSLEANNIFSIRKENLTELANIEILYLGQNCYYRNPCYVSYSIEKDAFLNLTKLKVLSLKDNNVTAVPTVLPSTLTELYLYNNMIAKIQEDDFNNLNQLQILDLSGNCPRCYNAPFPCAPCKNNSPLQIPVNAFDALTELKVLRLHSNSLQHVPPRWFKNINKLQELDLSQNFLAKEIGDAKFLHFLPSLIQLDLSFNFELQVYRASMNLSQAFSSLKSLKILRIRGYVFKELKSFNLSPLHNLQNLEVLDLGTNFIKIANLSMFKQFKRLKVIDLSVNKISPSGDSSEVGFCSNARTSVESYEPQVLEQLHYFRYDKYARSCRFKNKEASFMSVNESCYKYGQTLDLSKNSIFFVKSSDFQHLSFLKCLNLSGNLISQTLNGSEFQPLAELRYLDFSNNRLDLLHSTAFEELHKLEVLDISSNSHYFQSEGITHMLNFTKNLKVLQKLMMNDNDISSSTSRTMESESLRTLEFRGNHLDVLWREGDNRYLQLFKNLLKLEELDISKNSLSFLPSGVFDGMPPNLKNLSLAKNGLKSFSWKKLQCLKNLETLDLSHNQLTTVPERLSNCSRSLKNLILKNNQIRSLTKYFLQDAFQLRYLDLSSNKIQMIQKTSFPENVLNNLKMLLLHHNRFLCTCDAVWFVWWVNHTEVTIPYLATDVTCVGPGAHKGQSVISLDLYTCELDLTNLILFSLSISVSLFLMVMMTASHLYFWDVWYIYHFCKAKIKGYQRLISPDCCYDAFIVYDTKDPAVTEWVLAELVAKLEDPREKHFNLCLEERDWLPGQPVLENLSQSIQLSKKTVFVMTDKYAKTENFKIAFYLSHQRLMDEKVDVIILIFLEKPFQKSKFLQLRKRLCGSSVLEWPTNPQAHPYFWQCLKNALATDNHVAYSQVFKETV
Assay: Test for evaluating the inhibition of the activation of human TLR7 (SEAP reporter, TLR7/NF-κB/SEAPorter HEK293 cell)
Conditions: R-848 200 nmol/L, SEAP reporter
pIC50: −log10 of the molar value.
recorded_metric: pIC50

1) CCOc1nc(N)c2nc(-c3cncc(F)c3)n(Cc3ccc(CN4CCCC4)cc3)c2n1 = 6.12
2) CCOc1nc(N)c2nc(-c3cncc(F)c3)n(Cc3ccc(CN4CCCCC4)cc3)c2n1 = 7.15
3) CCOc1nc(C)c2nc(-c3cncc(F)c3)n(Cc3ccc(CN4CCN(C)CC4)cc3)c2n1 = 7.57
4) CCOc1nc(C)c2nc(-c3cncc(F)c3)n(Cc3cnc(Cl)c(F)c3)c2n1 = 6.18
5) COCCOc1nc(N)c2nc(-c3cncc(F)c3)n(Cc3ccc(CN4CCOCC4)cc3)c2n1 = 6.05
6) COc1nc(C)c2nc(-c3cncc(F)c3)n(Cc3cnn(CCN(C)C)c3)c2n1 = 6.70
7) CCOc1nc(N)c2nc(-c3cncc(OC)c3)n(Cc3ccc(CN(C)C)cc3)c2n1 = 5.54
8) COc1nc(C)c2nc(-c3cncc(F)c3)n(Cc3ccc(O[C@@H]4CN5CCC4CC5)nc3)c2n1 = 6.89
9) CCCCOc1nc(N)c2nc(-c3cncc(F)c3)n(Cc3cccc(CN4CCOCC4)c3)c2n1 = 6.52
10) CCOc1nc(N)c2nc(-c3cncc(F)c3)n(Cc3ccc(C4CCN(C)CC4)cc3)c2n1 = 7.28
11) CCOc1nc(N)c2nc(-c3cncc(F)c3)n(Cc3ccc(CN4C[C@@H]5C[C@H]4CN5C4CC4)cc3)c2n1 = 7.37
12) CCOc1nc(C)c2nc(-c3cncc(F)c3)n(Cc3ccc(OCC4CN5CCC4CC5)nc3)c2n1 (stereo not shown) = 6.80
13) CCOc1nc(C)c2nc(-c3cncc(F)c3)n(Cc3ccc(CN4C[C@H]5C[C@@H]4CN5C)cc3)c2n1 = 8.30
14) CN(C)Cc1ccc(Cn2c(-c3cncc(F)c3)nc3c(N)nc(OCC4CC4)nc32)cc1 = 5.89
15) COc1nc(C)c2nc(-c3cncc(F)c3)n(Cc3ccc(CN(C)C)cc3F)c2n1 = 7.55
16) CCCCOc1nc(N)c2nc(-c3ccoc3)n(Cc3ccccc3)c2n1 = 5.11

Every entry's value here was drawn from patent US10703755B2.
